assay: Cytotoxicity against HMEC cells assessed as reduction in cell viability after 72 hrs by CellTiter-Glo assay; assay type: toxicity, cell-based; details: human
REPORTED METRIC: IC50 at 72 h

[in] Requested read-out: IC50 at 72 h. Entry: "CCc1cc(Nc2nccc(-c3c(-c4ccc(OC)c(C(=O)Nc5c(F)cccc5F)c4)nc4ccccn34)n2)c(OC)cc1N1CCC(N2CCN(S(C)(=O)=O)CC2)CC1"
[out] > 20 µM

* * *

target: Vascular endothelial growth factor receptor 3 (Homo sapiens); assay: Inhibition of N-terminal GST-tagged recombinant human Flt4 (800 to end residues) expressed in baculovirus infected Sf21 cells by filter binding assay
Sequence (P35916 whole entry): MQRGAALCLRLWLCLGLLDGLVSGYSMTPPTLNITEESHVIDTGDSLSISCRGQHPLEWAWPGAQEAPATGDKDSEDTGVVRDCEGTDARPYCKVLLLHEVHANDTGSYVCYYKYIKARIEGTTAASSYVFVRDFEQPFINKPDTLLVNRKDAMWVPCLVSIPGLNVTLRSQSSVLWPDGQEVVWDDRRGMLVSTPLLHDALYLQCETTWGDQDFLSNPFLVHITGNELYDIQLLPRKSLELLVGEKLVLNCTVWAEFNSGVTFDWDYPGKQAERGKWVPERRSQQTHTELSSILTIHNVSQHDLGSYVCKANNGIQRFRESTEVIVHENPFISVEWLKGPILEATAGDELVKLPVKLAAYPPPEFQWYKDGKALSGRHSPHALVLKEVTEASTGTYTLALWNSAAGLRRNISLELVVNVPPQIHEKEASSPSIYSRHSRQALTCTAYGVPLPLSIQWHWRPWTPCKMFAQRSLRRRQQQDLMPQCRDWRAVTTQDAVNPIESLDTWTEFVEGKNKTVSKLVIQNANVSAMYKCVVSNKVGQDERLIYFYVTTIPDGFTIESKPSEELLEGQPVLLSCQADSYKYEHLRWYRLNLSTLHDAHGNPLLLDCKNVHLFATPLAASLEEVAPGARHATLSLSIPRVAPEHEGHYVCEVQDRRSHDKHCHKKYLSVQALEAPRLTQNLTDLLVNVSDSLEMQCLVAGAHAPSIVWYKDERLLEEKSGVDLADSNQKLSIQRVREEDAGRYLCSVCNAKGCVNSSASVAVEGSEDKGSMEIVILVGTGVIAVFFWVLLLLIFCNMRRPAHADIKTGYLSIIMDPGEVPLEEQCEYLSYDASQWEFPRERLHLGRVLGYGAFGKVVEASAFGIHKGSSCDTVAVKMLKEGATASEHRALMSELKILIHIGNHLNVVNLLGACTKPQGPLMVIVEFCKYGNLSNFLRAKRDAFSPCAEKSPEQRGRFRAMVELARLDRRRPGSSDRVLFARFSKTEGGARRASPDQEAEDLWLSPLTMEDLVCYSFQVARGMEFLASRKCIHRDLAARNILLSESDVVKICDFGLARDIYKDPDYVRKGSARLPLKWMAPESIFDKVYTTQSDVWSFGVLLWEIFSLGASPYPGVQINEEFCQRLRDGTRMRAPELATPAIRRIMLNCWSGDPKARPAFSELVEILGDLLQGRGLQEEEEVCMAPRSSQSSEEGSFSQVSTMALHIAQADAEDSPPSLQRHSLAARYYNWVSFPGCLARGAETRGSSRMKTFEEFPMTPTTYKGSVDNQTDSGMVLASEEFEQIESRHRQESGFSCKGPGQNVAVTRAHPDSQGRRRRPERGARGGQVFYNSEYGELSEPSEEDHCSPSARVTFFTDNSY
REPORTED METRIC: IC50 (nM)
Respond numerically; units are nM and should not be typed.

[in] Requested read-out: IC50. Entry: "CCc1cc(Nc2nccc(-c3c(-c4ccc(OC)c(C(=O)Nc5c(F)cccc5F)c4)nc4ccccn34)n2)c(OC)cc1N1CCC(N2CCN(S(C)(=O)=O)CC2)CC1"
[out] 159

* * *

biological target: High affinity nerve growth factor receptor (Homo sapiens, UniProt P04629); test: Inhibition of N-terminal His6-tagged recombinant human TrkA (440 to end residues) expressed in baculovirus infected Sf21 cells by filter binding assay
REPORTED METRIC: pIC50
Please express pIC50 as -log10 of the molar concentration.

[in] Requested read-out: pIC50. Entry: "CCc1cc(Nc2nccc(-c3c(-c4ccc(OC)c(C(=O)Nc5c(F)cccc5F)c4)nc4ccccn34)n2)c(OC)cc1N1CCC(N2CCN(S(C)(=O)=O)CC2)CC1"
[out] 6.15

* * *

assay: Cytotoxicity against human PREC cells assessed as reduction in cell viability after 72 hrs by CellTiter-Glo assay; assay type: toxicity, cell-based
REPORTED METRIC: IC50 at 72 h (nM)
Respond numerically; units are nM and should not be typed.

[in] Requested read-out: IC50 at 72 h. Entry: "CCc1cc(Nc2nccc(-c3c(-c4ccc(OC)c(C(=O)Nc5c(F)cccc5F)c4)nc4ccccn34)n2)c(OC)cc1N1CCC(N2CCN(S(C)(=O)=O)CC2)CC1"
[out] 68

* * *

target: Mitogen-activated protein kinase 14 (Homo sapiens, UniProt Q16539); experiment: Inhibition of P38alpha (unknown origin)
REPORTED METRIC: IC50

[in] Requested read-out: IC50. Entry: "CCc1cc(Nc2nccc(-c3c(-c4ccc(OC)c(C(=O)Nc5c(F)cccc5F)c4)nc4ccccn34)n2)c(OC)cc1N1CCC(N2CCN(S(C)(=O)=O)CC2)CC1"
[out] 10 µM

* * *

target: UniProt:P08631; experiment: Inhibition of N-terminal 6His-tagged recombinant human Hck (230 to 497 residues) expressed in baculovirus infected Sf21 cells by filter binding assay
REPORTED METRIC: IC50 (nM)
Respond numerically; units are nM and should not be typed.

[in] Item: "CCc1cc(Nc2nccc(-c3c(-c4ccc(OC)c(C(=O)Nc5c(F)cccc5F)c4)nc4ccccn34)n2)c(OC)cc1N1CCC(N2CCN(S(C)(=O)=O)CC2)CC1" Test system: UniProt:P08631 Read-out: IC50 Value: ?
[out] 275

* * *

Target: Tyrosine-protein kinase ZAP-70 (Homo sapiens, UniProt P43403)
Sequence (P43403 whole entry): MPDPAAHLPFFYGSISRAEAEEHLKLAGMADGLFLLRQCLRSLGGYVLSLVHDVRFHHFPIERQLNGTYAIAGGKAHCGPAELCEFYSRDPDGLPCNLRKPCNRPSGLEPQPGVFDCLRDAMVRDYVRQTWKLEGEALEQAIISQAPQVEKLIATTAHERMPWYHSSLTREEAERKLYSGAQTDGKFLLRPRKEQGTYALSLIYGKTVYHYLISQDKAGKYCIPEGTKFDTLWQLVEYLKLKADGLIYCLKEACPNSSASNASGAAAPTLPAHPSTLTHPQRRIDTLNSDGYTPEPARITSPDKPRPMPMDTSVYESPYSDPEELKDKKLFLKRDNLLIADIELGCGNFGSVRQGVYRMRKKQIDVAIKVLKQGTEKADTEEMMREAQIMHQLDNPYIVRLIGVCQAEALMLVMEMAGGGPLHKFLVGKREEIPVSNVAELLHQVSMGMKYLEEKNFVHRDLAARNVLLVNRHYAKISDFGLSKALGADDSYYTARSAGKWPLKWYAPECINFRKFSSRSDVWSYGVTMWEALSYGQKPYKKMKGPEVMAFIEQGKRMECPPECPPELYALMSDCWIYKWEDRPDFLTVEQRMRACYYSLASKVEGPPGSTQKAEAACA
REPORTED METRIC: IC50

[in] Requested read-out: IC50. Entry: "CCc1cc(Nc2nccc(-c3c(-c4ccc(OC)c(C(=O)Nc5c(F)cccc5F)c4)nc4ccccn34)n2)c(OC)cc1N1CCC(N2CCN(S(C)(=O)=O)CC2)CC1"
[out] > 20 µM

* * *

molecular target: Casein kinase I isoform gamma-3 (Homo sapiens, UniProt Q9Y6M4); assay: Inhibition of N-terminal 6His-tagged recombinant human CK1gamma3 (1 to 330 residues) expressed in baculovirus infected Sf21 cells by filter binding assay
REPORTED METRIC: IC50

[in] Item: "CCc1cc(Nc2nccc(-c3c(-c4ccc(OC)c(C(=O)Nc5c(F)cccc5F)c4)nc4ccccn34)n2)c(OC)cc1N1CCC(N2CCN(S(C)(=O)=O)CC2)CC1" Test system: Casein kinase I isoform gamma-3 (Homo sapiens, UniProt Q9Y6M4) Read-out: IC50 Value: ?
[out] > 10 µM

* * *

molecular target: Receptor tyrosine-protein kinase erbB-2 (Homo sapiens, UniProt P04626)
pIC50: −log10 of the molar value.
REPORTED METRIC: pIC50

[in] Requested read-out: pIC50. Entry: "CCc1cc(Nc2nccc(-c3c(-c4ccc(OC)c(C(=O)Nc5c(F)cccc5F)c4)nc4ccccn34)n2)c(OC)cc1N1CCC(N2CCN(S(C)(=O)=O)CC2)CC1"
[out] < 5.00

* * *

molecular target: Cyclin-dependent kinase 16 (Homo sapiens, UniProt Q00536)
Sequence (Q00536 whole entry): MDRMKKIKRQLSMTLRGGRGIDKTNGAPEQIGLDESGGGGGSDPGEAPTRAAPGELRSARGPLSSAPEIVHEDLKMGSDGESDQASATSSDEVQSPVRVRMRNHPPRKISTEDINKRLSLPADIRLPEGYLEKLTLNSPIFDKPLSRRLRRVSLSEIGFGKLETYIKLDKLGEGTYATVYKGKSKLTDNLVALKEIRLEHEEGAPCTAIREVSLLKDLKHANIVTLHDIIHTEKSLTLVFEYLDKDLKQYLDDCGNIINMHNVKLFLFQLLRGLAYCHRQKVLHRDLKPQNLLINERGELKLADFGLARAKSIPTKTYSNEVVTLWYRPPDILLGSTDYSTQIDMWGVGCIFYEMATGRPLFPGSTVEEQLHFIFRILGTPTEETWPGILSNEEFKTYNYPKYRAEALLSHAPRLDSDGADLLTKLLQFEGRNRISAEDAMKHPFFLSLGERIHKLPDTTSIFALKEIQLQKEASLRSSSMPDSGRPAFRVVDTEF
pIC50: −log10 of the molar value.
REPORTED METRIC: pIC50

[in] Requested read-out: pIC50. Entry: "CCc1cc(Nc2nccc(-c3c(-c4ccc(OC)c(C(=O)Nc5c(F)cccc5F)c4)nc4ccccn34)n2)c(OC)cc1N1CCC(N2CCN(S(C)(=O)=O)CC2)CC1"
[out] < 5.00

* * *

system: SU-DHL-1; assay: Antiproliferative activity against human SU-DHL-1 cells assessed as reduction in cell viability after 72 hrs by CellTiter-Glo assay; format: functional, cell-based; conditions: SU-DHL-1, 72 h
REPORTED METRIC: IC50

[in] Requested read-out: IC50. Entry: "CCc1cc(Nc2nccc(-c3c(-c4ccc(OC)c(C(=O)Nc5c(F)cccc5F)c4)nc4ccccn34)n2)c(OC)cc1N1CCC(N2CCN(S(C)(=O)=O)CC2)CC1"
[out] > 30 µM

* * *

biological target: Tyrosine-protein kinase ABL1 (Homo sapiens, UniProt P00519); assay: Inhibition of N-terminal His6-tagged recombinant human Abl (27 to end residues) expressed in baculovirus infected Sf21 cells by filter binding assay
REPORTED METRIC: IC50 (µM)
Respond numerically; units are µM and should not be typed.

[in] Requested read-out: IC50. Entry: "CCc1cc(Nc2nccc(-c3c(-c4ccc(OC)c(C(=O)Nc5c(F)cccc5F)c4)nc4ccccn34)n2)c(OC)cc1N1CCC(N2CCN(S(C)(=O)=O)CC2)CC1"
[out] 4.75

* * *

target: RAC-alpha serine/threonine-protein kinase (Homo sapiens, UniProt P31749)
REPORTED METRIC: IC50

[in] Item: "CCc1cc(Nc2nccc(-c3c(-c4ccc(OC)c(C(=O)Nc5c(F)cccc5F)c4)nc4ccccn34)n2)c(OC)cc1N1CCC(N2CCN(S(C)(=O)=O)CC2)CC1" Test system: RAC-alpha serine/threonine-protein kinase (Homo sapiens, UniProt P31749) Read-out: IC50 Value: ?
[out] > 10 µM

* * *

biological target: Tyrosine-protein kinase Fes/Fps (Homo sapiens); test: Inhibition of N-terminal His6-tagged recombinant full length human Fes expressed in baculovirus infected Sf21 cells by filter binding assay
Sequence (P07332 whole entry): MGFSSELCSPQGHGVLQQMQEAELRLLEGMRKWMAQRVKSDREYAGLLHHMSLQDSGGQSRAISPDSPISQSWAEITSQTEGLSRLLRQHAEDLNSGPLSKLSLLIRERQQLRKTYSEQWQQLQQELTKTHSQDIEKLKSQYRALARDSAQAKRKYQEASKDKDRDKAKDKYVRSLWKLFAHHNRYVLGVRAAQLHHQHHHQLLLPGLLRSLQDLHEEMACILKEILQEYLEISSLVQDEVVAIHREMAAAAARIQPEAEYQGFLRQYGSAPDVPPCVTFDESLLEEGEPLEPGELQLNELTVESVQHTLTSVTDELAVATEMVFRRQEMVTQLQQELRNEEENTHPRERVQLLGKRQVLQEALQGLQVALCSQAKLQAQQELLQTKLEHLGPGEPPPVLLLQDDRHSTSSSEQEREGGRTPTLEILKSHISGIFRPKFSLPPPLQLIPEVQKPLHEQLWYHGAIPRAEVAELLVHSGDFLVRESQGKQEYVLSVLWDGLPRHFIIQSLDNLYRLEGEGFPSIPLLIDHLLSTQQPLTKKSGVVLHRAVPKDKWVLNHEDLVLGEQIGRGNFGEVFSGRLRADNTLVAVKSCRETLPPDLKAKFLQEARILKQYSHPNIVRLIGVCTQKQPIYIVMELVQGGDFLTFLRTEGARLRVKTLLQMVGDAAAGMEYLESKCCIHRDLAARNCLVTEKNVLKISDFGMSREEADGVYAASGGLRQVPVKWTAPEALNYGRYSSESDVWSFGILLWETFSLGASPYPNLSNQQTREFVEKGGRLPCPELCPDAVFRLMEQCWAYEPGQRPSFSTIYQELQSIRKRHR
REPORTED METRIC: pIC50
Please express pIC50 as -log10 of the molar concentration.

[in] Requested read-out: pIC50. Entry: "CCc1cc(Nc2nccc(-c3c(-c4ccc(OC)c(C(=O)Nc5c(F)cccc5F)c4)nc4ccccn34)n2)c(OC)cc1N1CCC(N2CCN(S(C)(=O)=O)CC2)CC1"
[out] 6.83

* * *

target: UniProt Q15303
Sequence (Q15303 whole entry): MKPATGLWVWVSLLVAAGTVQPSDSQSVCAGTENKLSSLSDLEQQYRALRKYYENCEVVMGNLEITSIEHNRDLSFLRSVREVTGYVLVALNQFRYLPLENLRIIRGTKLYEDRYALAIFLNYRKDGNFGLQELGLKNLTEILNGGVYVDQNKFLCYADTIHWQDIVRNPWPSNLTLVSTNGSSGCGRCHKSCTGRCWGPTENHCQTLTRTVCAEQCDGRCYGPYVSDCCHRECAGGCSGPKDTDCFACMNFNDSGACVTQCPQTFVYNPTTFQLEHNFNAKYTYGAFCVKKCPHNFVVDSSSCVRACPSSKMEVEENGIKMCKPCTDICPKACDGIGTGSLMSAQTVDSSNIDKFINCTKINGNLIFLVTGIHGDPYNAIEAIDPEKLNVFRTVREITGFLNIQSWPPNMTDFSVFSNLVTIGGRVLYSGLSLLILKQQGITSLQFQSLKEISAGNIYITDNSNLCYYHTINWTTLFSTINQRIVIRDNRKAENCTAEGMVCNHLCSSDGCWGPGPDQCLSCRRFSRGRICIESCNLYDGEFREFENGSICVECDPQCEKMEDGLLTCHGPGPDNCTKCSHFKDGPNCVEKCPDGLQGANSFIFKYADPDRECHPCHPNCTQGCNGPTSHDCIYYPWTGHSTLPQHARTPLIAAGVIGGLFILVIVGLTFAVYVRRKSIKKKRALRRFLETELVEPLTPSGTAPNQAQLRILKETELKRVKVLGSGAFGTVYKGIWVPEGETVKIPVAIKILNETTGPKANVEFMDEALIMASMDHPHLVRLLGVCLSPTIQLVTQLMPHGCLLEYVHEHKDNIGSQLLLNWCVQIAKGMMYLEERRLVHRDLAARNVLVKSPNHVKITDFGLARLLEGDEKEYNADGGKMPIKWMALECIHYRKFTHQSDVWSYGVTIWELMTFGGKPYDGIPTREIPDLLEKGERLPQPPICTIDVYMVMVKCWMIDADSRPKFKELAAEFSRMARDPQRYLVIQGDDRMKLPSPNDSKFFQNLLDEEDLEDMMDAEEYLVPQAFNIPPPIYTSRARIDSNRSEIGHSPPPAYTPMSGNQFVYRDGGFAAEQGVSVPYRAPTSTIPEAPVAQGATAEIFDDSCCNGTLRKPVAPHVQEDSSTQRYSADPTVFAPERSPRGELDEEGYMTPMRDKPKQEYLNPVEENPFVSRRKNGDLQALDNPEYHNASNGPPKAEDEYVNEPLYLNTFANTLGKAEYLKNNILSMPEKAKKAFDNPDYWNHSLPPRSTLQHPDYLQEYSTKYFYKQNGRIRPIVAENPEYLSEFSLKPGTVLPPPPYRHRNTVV
pIC50: −log10 of the molar value.
REPORTED METRIC: pIC50

[in] Requested read-out: pIC50. Entry: "CCc1cc(Nc2nccc(-c3c(-c4ccc(OC)c(C(=O)Nc5c(F)cccc5F)c4)nc4ccccn34)n2)c(OC)cc1N1CCC(N2CCN(S(C)(=O)=O)CC2)CC1"
[out] < 4.60

* * *

target: Tyrosine-protein kinase Fer (Homo sapiens); test: Inhibition of N-terminal His6 tagged recombinant human Fer (541 to end residues) expressed in baculovirus infected Sf21 cells by filter binding assay
Sequence (P16591 whole entry): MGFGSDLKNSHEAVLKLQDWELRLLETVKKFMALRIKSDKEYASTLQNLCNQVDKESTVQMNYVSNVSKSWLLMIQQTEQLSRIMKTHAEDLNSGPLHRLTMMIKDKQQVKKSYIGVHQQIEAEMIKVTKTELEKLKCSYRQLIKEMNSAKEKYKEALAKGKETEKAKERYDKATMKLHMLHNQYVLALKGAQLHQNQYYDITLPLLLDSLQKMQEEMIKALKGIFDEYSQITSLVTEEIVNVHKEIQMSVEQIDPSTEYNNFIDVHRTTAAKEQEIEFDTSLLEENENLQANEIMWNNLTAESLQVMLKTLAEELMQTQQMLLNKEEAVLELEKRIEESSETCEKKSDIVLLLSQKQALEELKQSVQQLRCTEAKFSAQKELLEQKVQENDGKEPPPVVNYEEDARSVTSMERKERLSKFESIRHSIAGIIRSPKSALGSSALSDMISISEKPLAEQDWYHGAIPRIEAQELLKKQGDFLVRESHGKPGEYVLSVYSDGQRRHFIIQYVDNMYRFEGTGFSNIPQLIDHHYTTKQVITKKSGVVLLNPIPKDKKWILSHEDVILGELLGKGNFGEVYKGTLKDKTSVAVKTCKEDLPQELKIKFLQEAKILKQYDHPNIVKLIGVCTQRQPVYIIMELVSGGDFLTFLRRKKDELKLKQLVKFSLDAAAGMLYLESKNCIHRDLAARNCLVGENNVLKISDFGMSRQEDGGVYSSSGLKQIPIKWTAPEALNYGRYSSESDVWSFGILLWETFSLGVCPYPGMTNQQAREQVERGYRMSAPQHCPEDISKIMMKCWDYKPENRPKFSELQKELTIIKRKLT
REPORTED METRIC: pIC50
Please express pIC50 as -log10 of the molar concentration.

[in] Requested read-out: pIC50. Entry: "CCc1cc(Nc2nccc(-c3c(-c4ccc(OC)c(C(=O)Nc5c(F)cccc5F)c4)nc4ccccn34)n2)c(OC)cc1N1CCC(N2CCN(S(C)(=O)=O)CC2)CC1"
[out] 7.89
